system: Fibroblast; test: Incucyte cell viability with human fibroblast; format: toxicity, cell-based; details: 18 h, 10 µM, compound concentration 10 uM, replicate number 1, timepoint 18 hours; also: unitless GR value; below 1 slowed growth and below 0 cell loss
outcomeMeasure: Growth Rate

* Nc1ncnc2c1ncn2[C@@H]1O[C@H](CO)[C@@H](O)[C@H]1O [ADENOSINE] | 0.7
* Cl.O=C(O)c1cc(-c2ccc(C3CCNCC3)cc2)c2ccc(-c3ccc(C(F)(F)F)cc3)cc2c1 | -0.01
* Cc1c(Cc2ccc3ccccc3n2)c2cc(F)ccc2n1CC(=O)O [TIMAPIPRANT] | 0.8
* CC(C)CCC[C@@H](C)[C@H]1CC[C@H]2[C@@H]3[C@H](O)C=C4C[C@@H](O)CC[C@]4(C)[C@H]3CC[C@]12C | 0.52
* CC(=O)c1ccc2c(c1)[C@@H]1C=CC[C@@H]1[C@H](c1cc3c(cc1Br)OCO3)N2 | -0.76
* COc1cc2nc(N3CCN(C(=O)c4ccco4)CC3)nc(N)c2cc1OC.Cl [PRAZOSIN HYDROCHLORIDE] | 0.49
* Cc1cnc(-c2cc(N3CCN(C(=O)CCS(C)(=O)=O)CC3)ncc2Cl)c(C)c1 | 0.94
* O=C1NCc2ccc3c(-c4cccc(Cl)c4)c[nH]c3c21 | -0.65
* N#Cc1cc(F)cc(-c2nc(-c3ccc(F)cn3)no2)c1 | 0.84
* COc1cc(Nc2ncc3c(n2)-c2ccc(Cl)cc2C(c2c(F)cccc2OC)=NC3)ccc1C(=O)O [ALISERTIB] | -0.64
* CSc1ccccc1N1CCN(CCCCCC(=O)NC2CCCc3ccccc32)CC1.Cl (configuration not stated) | 0.05
* O=c1ccn([C@@H]2O[C@H](COP(=O)([O-])OP(=O)([O-])OP(=O)([O-])O)[C@@H](O)[C@H]2O)c(=O)[nH]1.[Na+].[Na+].[Na+] | 0.29
* C[C@H]1[C@H]2CC[C@H]3[C@@H]4CC=C5C[C@@H](N(C)C)CC[C@]5(C)[C@H]4CC[C@]23CN1C [CONESSINE] | 0.35
* Cc1nccc(COC(=O)N2C[C@@H]3[C@@H](CNC(=O)c4ccc5[nH]nnc5c4)[C@@H]3C2)n1 [BI 3017] | 0.53
* CC[C@H](Nc1ncnc2[nH]cnc12)c1nc2cccc(F)c2c(=O)n1-c1ccccc1 [IDELALISIB] | -0.04
* CN1CCN(c2ccc(Nc3c4ccccc4nc4ccccc34)cc2)CC1.Cl.Cl.O | -0.39
* CC1(C)[C@H]2C[C@H](C/C=C\CCCC(=O)O)[C@@H](NC(=O)c3csc4ccc(O)cc34)[C@@H]1C2 | 0.69
